ASSAYED_SYSTEM: Tyrosinase (Homo sapiens)
Sequence (P14679 whole entry): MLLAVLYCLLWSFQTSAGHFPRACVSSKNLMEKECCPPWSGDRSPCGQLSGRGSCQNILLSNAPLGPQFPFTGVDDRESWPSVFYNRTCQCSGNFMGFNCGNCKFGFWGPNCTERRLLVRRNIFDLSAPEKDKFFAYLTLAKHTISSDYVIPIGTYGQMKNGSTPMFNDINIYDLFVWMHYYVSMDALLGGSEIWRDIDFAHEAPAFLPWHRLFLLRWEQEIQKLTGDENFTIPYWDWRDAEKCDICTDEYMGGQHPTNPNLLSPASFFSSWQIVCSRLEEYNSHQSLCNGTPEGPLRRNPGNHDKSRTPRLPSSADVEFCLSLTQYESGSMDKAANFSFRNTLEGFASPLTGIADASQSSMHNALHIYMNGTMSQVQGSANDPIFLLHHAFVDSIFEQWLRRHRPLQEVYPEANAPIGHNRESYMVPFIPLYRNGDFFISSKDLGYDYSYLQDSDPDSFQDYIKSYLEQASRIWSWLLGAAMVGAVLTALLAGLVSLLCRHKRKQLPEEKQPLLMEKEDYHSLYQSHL
PROTOCOL: Inhibition of tyrosinase
STUDY_CONDITIONS: read-out: IC50
Would you kindly list IC50 for each of these compounds?

{"SMI": "O=C(/C=C/c1ccc(O)cc1)/C=C/c1ccc(O)cc1", "IC50": "79 µM"}
{"SMI": "COc1ccc(/C=C/C(=O)/C=C/c2ccc(OC)cc2F)c(F)c1", "IC50": "> 250 µM"}
{"SMI": "COc1cc(/C=C/C(=O)/C=C/c2ccc(O)c(OC)c2)ccc1O", "IC50": "> 250 µM"}

Proceed to the following item.
Recorded IC50 of O=C(/C=C/c1ccc(F)cc1)/C=C/c1ccc(F)cc1 , please.
> 250 µM

Hey, just so you know, these numbers are from ChEMBL document CHEMBL1153005.
